test system: GT1a replicon encoding NS5A mutation M28T; assay: Transient replication assay, GT1a replicon with NS5A mutation M28T; format: cell-based; conditions: Hepatitis C virus, read-out: EC50 1a M28T
Checkbox rule: EC50 lower than 0.08 nM = yes (1); EC50 not lower than 0.08 nM = no (0).

| compound-structure-string | category |
| --- | --- |
| COC(=O)N[C@H](C(=O)N1C[C@]2(CCCO2)C[C@H]1c1ncc(-c2ccc(-c3ccc4c(ccc5nc([C@@H]6CCCN6C(=O)[C@@H](NC(=O)OC)C(C)C)[nH]c54)c3)cc2)[nH]1)C(C)C | no (0) |
| COC(=O)N[C@H](C(=O)N1C[C@]2(CCCOC2)C[C@H]1c1ncc(-c2ccc(-c3ccc4c(ccc5nc([C@@H]6C[C@@H]7CCCC[C@@H]7N6C(=O)[C@@H](NC(=O)OC)C(C)C)[nH]c54)c3)cc2)[nH]1)C(C)C | yes (1) |
| COC(=O)N[C@H](C(=O)N1C[C@]2(CCCOC2)C[C@H]1c1nc2ccc3cc(-c4ccc5c(ccc6nc([C@@H]7C[C@@H]8CCCC[C@@H]8N7C(=O)[C@@H](NC(=O)OC)C(C)C)[nH]c65)c4)ccc3c2[nH]1)C(C)C | yes (1) |
| COC(=O)N[C@H](C(=O)N1C[C@]2(CCCOC2)C[C@H]1c1nc2ccc3cc(-c4ccc5c(ccc6nc([C@@H]7C[C@@H]8CCC[C@@H]8N7C(=O)[C@@H](NC(=O)OC)C(C)C)[nH]c65)c4)ccc3c2[nH]1)C(C)C | yes (1) |
| COC(=O)N[C@H](C(=O)N1CC2(CC2)C[C@H]1c1nc2ccc3cc(-c4ccc5c(ccc6nc([C@@H]7C[C@@]8(CCCOC8)CN7C(=O)[C@@H](NC(=O)OC)C(C)C)[nH]c65)c4)ccc3c2[nH]1)C(C)C | yes (1) |
| COC(=O)N[C@H](C(=O)N1C[C@@]2(CCCOC2)C[C@H]1c1ncc(-c2ccc(-c3ccc4c(ccc5nc([C@@H]6CCCN6C(=O)[C@@H](NC(=O)OC)C(C)C)[nH]c54)c3)cc2)[nH]1)C(C)C | yes (1) |
| COC(=O)N[C@H](C(=O)N1C[C@]2(CCCOC2)C[C@H]1c1ncc(-c2ccc(-c3ccc4c(ccc5nc([C@@H]6C[C@@H]7C[C@@H]7N6C(=O)[C@@H](NC(=O)OC)C(C)C)[nH]c54)c3)cc2)[nH]1)C(C)C | no (0) |
| COC(=O)N[C@H](C(=O)N1CCC[C@H]1c1nc2ccc(C#Cc3ccc4c(ccc5nc([C@@H]6CCCN6C(=O)[C@@H](NC(=O)OC)C(C)C)[nH]c54)c3)cc2[nH]1)C(C)C | no (0) |
| COC(=O)N[C@H](C(=O)N1CCC[C@H]1c1nc2ccc3cc(-c4ccc5c(ccc6nc([C@@H]7CCCN7C(=O)[C@@H](NC(=O)OC)C(C)C)[nH]c65)c4)ccc3c2[nH]1)C(C)C | no (0) |
| COC(=O)N[C@H](C(=O)N1C[C@]2(CCCOC2)C[C@H]1c1ncc(-c2ccc(-c3ccc4c(c3)OCc3nc([C@@H]5CCCN5C(=O)[C@@H](NC(=O)OC)C(C)C)[nH]c3-4)cc2)[nH]1)C(C)C | no (0) |
| COC(=O)N[C@H](C(=O)N1C[C@@]2(CCOC2)C[C@H]1c1ncc(-c2ccc(-c3ccc4c(ccc5nc([C@@H]6CCCN6C(=O)[C@@H](NC(=O)OC)C(C)C)[nH]c54)c3)cc2)[nH]1)C(C)C | no (0) |
| COC(=O)N[C@H](C(=O)N1C[C@]2(CCCOC2)C[C@H]1c1ncc(-c2ccc3cc4cc(-c5cnc([C@@H]6C[C@@H]7CCCC[C@@H]7N6C(=O)[C@@H](NC(=O)OC)C(C)C)[nH]5)ccc4cc3c2)[nH]1)C(C)C | yes (1) |
| COC(=O)N[C@H](C(=O)N1C[C@]2(CCCCO2)C[C@H]1c1nc(-c2ccc(-c3ccc4c(ccc5nc([C@@H]6CCCN6C(=O)[C@@H](NC(=O)OC)C(C)C)[nH]c54)c3)cc2)c[nH]1)C(C)C | no (0) |
| COC(=O)N[C@H](C(=O)N1C[C@]2(CCCOC2)C[C@H]1c1nc2ccc3cc(-c4ccc5c(ccc6nc([C@@H]7C[C@H]8C[C@H]8N7C(=O)[C@@H](NC(=O)OC)C(C)C)[nH]c65)c4)ccc3c2[nH]1)C(C)C | yes (1) |
| COC(=O)N[C@H](C(=O)N1C[C@]2(CCCOC2)C[C@H]1c1nc2ccc3cc(-c4ccc(-c5cnc([C@@H]6C[C@@H]7CCCC[C@@H]7N6C(=O)[C@@H](NC(=O)OC)C(C)C)[nH]5)cc4)ccc3c2[nH]1)C(C)C | yes (1) |
| COC(=O)N[C@H](C(=O)N1C[C@]2(CCCOC2)C[C@H]1c1ncc(-c2ccc(-c3ccc(-c4cnc([C@@H]5C[C@@H]6CCCC[C@@H]6N5C(=O)[C@@H](NC(=O)OC)C(C)C)[nH]4)cc3)cc2)[nH]1)C(C)C | yes (1) |
